target: Cannabinoid receptor 2 (Homo sapiens, UniProt P34972)
Sequence (P34972 whole entry): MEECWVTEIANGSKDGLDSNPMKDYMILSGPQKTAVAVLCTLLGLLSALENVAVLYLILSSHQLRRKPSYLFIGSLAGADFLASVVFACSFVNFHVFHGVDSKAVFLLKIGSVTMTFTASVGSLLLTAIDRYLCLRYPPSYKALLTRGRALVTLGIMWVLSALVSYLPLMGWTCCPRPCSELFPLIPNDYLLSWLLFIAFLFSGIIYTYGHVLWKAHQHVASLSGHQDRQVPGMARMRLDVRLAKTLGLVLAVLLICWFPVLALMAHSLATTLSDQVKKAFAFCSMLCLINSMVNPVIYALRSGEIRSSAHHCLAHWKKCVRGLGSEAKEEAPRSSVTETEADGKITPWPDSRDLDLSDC
pEC50: −log10 of the molar value.
measured_parameter: pEC50

> print(dat)
                              record.smiles  value
1  CCCCCc1cc(O)c2c(c1)OC(C)(C)c1ccc(C)cc1-2   7.22
